# System: HT-29
# assayProcedure: NCI tumour cell line growth inhibition, 48 h
The source made the active and inactive calls. Rule as the data show it: active = GI50 up to about 1.1 µM and inactive = higher.
Each record here notes measured GI50.

Below are worked cases with known answers.
CCNC1=C(NC(=O)c2ccc(F)cc2)C(=O)c2ccccc2C1=O    22.2 µM (inactive)
CC(C)(C)OC(=O)C1CCC/C1=N/Nc1ccc([N+](=O)[O-])cc1[N+](=O)[O-] (centres undefined)    36.5 µM (inactive)
O=c1[nH]nc(-c2ccccc2)n1/N=C/c1cccc([N+](=O)[O-])c1    > 100 µM (inactive)
CC1=CC(=O)CCC2(C)C1CC[C@@H]2OC=O (some centres undefined)    > 100 µM (inactive)
Cc1nc(Cl)nc(Cl)c1C    > 100 µM (inactive)
Cc1cccc(C2SCc3nc4ccccc4n32)c1 (centres undefined)    27.9 µM (inactive)
Cc1ccc(S(=O)(=O)N2CCCCN(S(=O)(=O)c3ccc(C)cc3)Cc3ccccc3OCCOCCOc3c4cccc3Cc3cccc5c3OCCOCCOc3ccccc3CN(S(=O)(=O)c3ccc(C)cc3)CCCN(S(=O)(=O)c3ccc(C)cc3)Cc3ccccc3OCCOCCOc3c(cccc3C4)Cc3cccc(c3OCCOCCOc3ccccc3C2)C5)cc1    > 100 µM (inactive)
CO/C(N)=C(C#N)/N=C/c1cccs1    25.9 µM (inactive)

Okay, next one:
The reported GI50 of the compound NCCSCCC(=O)O was > 84.1 µM (inactive)
